# TARGET_ENTITY: T1, human CDH6 on tumor cells (OVCAR3 cells, PA-1 cells) (human, UniProt P55285 54-790)
# T1 sequence: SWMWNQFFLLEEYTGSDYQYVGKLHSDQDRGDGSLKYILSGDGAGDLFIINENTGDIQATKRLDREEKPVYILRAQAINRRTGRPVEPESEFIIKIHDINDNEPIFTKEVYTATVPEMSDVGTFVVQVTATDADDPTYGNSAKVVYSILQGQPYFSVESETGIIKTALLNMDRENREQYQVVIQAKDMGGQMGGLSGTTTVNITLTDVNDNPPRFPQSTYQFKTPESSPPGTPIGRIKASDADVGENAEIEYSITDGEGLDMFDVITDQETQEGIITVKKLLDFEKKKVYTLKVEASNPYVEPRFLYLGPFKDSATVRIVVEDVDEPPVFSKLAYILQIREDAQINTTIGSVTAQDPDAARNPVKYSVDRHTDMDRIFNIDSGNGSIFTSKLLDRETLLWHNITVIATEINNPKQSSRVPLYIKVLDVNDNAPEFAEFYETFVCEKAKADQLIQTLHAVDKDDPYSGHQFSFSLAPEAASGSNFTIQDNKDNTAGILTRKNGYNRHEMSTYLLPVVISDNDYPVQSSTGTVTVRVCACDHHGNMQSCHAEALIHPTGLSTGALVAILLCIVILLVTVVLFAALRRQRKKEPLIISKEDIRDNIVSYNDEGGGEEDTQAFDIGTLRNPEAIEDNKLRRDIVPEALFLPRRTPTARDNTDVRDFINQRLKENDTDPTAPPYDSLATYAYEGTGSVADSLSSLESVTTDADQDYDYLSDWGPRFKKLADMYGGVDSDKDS
# TEST_NAME: FACS, PA-1 cells
MEASURED_PROPERTY: log10 EC50 (log10 of the value in nM)
Heads up: the numbers are on a log10 scale; they represent EC50 in nM.

Known log10 EC50 results, listed for orientation:
{"BINDER": "CHI-CDH6-6 (antibody, human IgG1, kappa, V domains shown, also called CHI-hCDH6-6; chimeric antibody of murine CDH6-6) VH: EVQLQQSGPELVKPGDSVKMSCKASGYTFTDYYMAWVRQSHRKSLEWIGYIFPNSGGTDYSQKFKGKATLTVDKSSSTVYMELHSLTSEDSAVYYCARELGADYGDYYAMDHWGQGTSVSVSS VL: DIQMTQSPASLSASVGETVTITCRASENIDSYLAWYQQKQGKSPQLLVYSATLLADGVPSRFSGSGSGTQYSLKINSLKSEDVARYYCQHYYRTPPTFGSGTKLEIKR", "log10 EC50": -0.37}
{"BINDER": "CHI-CDH6-12 (antibody, human IgG1, kappa, V domains shown, also called CH1-CDH6-12; chimeric antibody of murine CDH6-12) VH: EVNLVESGGGLVQPGDSLTLSCSASGFTFTDYYMSWVRQFPGKALEWLALIRNKANSYTTEYSASVKGRFTISRDNSQSILYLQMNALRAEDSATYYCARDSYYSHDGFAYWGQGTLVTVSA VL: DIVLTQSPASLAVSLGQRATISCRASKSVSTSSYTYMHWYQQKPGQPPKLLIKFASYLESGVPARFSGSGSGTDFTLNIHPVEEEDAATYYCQHSREFPFTFGTGTKLEIKR", "log10 EC50": 0.36}
{"BINDER": "CHI-CDH6-3 (antibody, human IgG1, kappa, V domains shown, also called CH1-CDH6-3; chimeric antibody of murine CDH6-3) VH: QVQLQQPGAELVKPGASVKLSCKASGYTFTSYWIHWVKQRPGQGLEWIGEINPSNGVTNCNENFKSKATLTVDKSSSTAYMQLSSLTSEDSAVYYCTIPNLLWWYFDVWGAGTTVTVSS VL: DIQMTQSPASLSVSVGETVTITCRASENIYSNLAWYQQKQGKSPQLLVYEATNLADGVPSRFSGSGSGTQYSLKINSLQSEDFGSYYCQHFWGTLWTFGGGTKLEIKR", "log10 EC50": -0.89}
{"BINDER": "CHI-CDH6-11 (antibody, human IgG1, kappa, V domains shown, also called chimeric antibody of murine CDH6-11) VH: QIQLQQSGPELVKPGASVRISCKASGYTFTDYYITWVKLRPGQGLEWIGWIYPGSVNIKYNEKFKGKATLTVDTSSSTAYMQLNSLTSEDSAVYFCARGGYSWFPYWGQGTLVTVSA VL: NIVMTQSPKSMSMSVGERVTLSCKASENVHTYVSWYQQKPEQSPKLLFYGASTRNTGVPDRFTGSGSATDFTLTISSVQAEDLADYYCGQSYSYPYTFGSGTKLEIKR", "log10 EC50": 0.25}

Would you kindly look at the next entry?
Looking up CHI-CDH6-2 (antibody, human IgG1, kappa, V domains shown, also called chimeric antibody of murine CDH6-2) VH: EVQLQQSGPELVKPGASVRISCKASGYTFTDYYMNWVKQSHGKSLEWIGDIDPNNANTTYNQKFKGKATLTVDKSSSTAYMELRSLTSEDSAVYSCASFGYDVEWFGYWGQGTLVTVSA VL: QIVLTQSPALMSASPGEKVTMTCSASSSVSYMYWYQQKPRSSPKPWIYLTSNLASGVPARFSGSGSGTSYSLTISSMEAEDAATYYCQQWSSNPFTFGSGTKLEIKR , I see its log10 EC50 listed as -0.70
